System: 996289-038-R-J1-PDC spheroid viability
Experiment: Anticancer human tumor 996289-038-R-J1-PDC patient-derived colon adenocarcinoma cell line growth inhibition [PI3K]
Conditions: curve of first compound; second compound 1 µM; spheroids with HUVEC and MSC
pIC50: −log10 of the molar value.

# Compound, Experimental Target, pIC50
records = [
    ("C[C@@H](NC(=O)c1ncnc(N)c1Cl)c1ncc(C(=O)Nc2cc(C(F)(F)F)c(Cl)cn2)s1 + CC(Nc1ccc2c(c1)OCCn1cc(N3C(=O)OCC3C(F)F)nc1-2)C(N)=O", "996289-038-R-J1-PDC spheroid viability", "< 5.00"),
    ("C#Cc1c(F)ccc2cc(O)cc(-c3ncc4c(N5CC6CCC(C5)N6)nc(OCC56CCCN5CC(F)C6)nc4c3F)c12 (stereo unspecified) + CC(Nc1ccc2c(c1)OCCn1cc(N3C(=O)OCC3C(F)F)nc1-2)C(N)=O", "996289-038-R-J1-PDC spheroid viability", 7.11),
    ("Cn1ncnc1[C@H]1c2n[nH]c(=O)c3cc(F)cc(c23)N[C@@H]1c1ccc(F)cc1 + COc1c(OCCCN2CCOCC2)ccc2c3n(c(=NC(=O)c4cnc(N)nc4)nc12)CCN3", "996289-038-R-J1-PDC spheroid viability", "> 9.50"),
    ("C#Cc1c(F)ccc2cc(O)cc(-c3ncc4c(N5CC6CCC(C5)N6)nc(OCC56CCCN5CC(F)C6)nc4c3F)c12 (stereo unspecified) + CC(Nc1ncnc2nc[nH]c12)c1cc2cccc(Cl)c2c(=O)n1-c1ccccc1", "996289-038-R-J1-PDC spheroid viability", 5.98),
    ("C=CC(=O)N1CCN(c2nc(=O)n(-c3c(C)ccnc3C(C)C)c3nc(-c4c(O)cccc4F)c(F)cc23)C(C)C1 (stereo unspecified) + CC(Nc1ccc2c(c1)OCCn1cc(N3C(=O)OCC3C(F)F)nc1-2)C(N)=O", "996289-038-R-J1-PDC spheroid viability", "< 5.00"),
    ("CNC(=O)c1ccc(N2C(=S)N(c3ccc(C#N)c(C(F)(F)F)c3)C(=O)C2(C)C)cc1F + Cc1nc(NC(=O)N2CCCC2C(N)=O)sc1-c1ccnc(C(C)(C)C(F)(F)F)c1", "996289-038-R-J1-PDC spheroid viability", "< 5.00"),
    ("CCN1CCN(Cc2ccc(Nc3ncc(F)c(-c4cc(F)c5nc(C)n(C(C)C)c5c4)n3)nc2)CC1 + Cc1nc(NC(=O)N2CCCC2C(N)=O)sc1-c1ccnc(C(C)(C)C(F)(F)F)c1", "996289-038-R-J1-PDC spheroid viability", "< 6.00"),
    ("Cn1ncc(Cl)c1-c1cc(C(=O)NC(CN)Cc2cccc(F)c2)sc1Cl (stereo unspecified) + Cc1nc(NC(=O)N2CCCC2C(N)=O)sc1-c1ccnc(C(C)(C)C(F)(F)F)c1", "996289-038-R-J1-PDC spheroid viability", 5.86),
    ("CCCS(=O)(=O)Nc1ccc(F)c(C(=O)c2c[nH]c3ncc(-c4ccc(Cl)cc4)cc23)c1F + COc1c(OCCCN2CCOCC2)ccc2c3n(c(=NC(=O)c4cnc(N)nc4)nc12)CCN3", "996289-038-R-J1-PDC spheroid viability", "> 7.50"),
    ("CCCS(=O)(=O)Nc1ccc(F)c(C(=O)c2c[nH]c3ncc(-c4ccc(Cl)cc4)cc23)c1F + CC(Nc1ccc2c(c1)OCCn1cc(N3C(=O)OCC3C(F)F)nc1-2)C(N)=O", "996289-038-R-J1-PDC spheroid viability", 5.78),
    ("CNC(=O)c1ccc(N2C(=S)N(c3ccc(C#N)c(C(F)(F)F)c3)C(=O)C2(C)C)cc1F + CC(Nc1ncnc2nc[nH]c12)c1cc2cccc(Cl)c2c(=O)n1-c1ccccc1", "996289-038-R-J1-PDC spheroid viability", "< 5.00"),
]

====

System: 996289-038-R-J1-PDC spheroid viability
Assay: Anticancer human tumor 996289-038-R-J1-PDC cell line growth inhibition [PI3K];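 further: spheroids exposed to compounds for seven days before viability read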;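 on viability, T/C: luminescence used as a proxy for viable cell amount; percent viability relative to DMSO vehicle control as 100%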
Details: second compound 0.0316 µM; first compound 0.1 µM; stronger effect = lower value; spheroids with HUVEC and MSC
Form field: viability, T/C (one value per entry).
Quantity Name: viability, T/C (%)

# Compound, Experimental Target, Quantity Name, Measured Number
records = [
    ("CC(C)NCC(C(=O)N1CCN(c2ncnc3c2C(C)CC3O)CC1)c1ccc(Cl)cc1 (stereo unspecified) + Cc1nc(NC(=O)N2CCCC2C(N)=O)sc1-c1ccnc(C(C)(C)C(F)(F)F)c1", "996289-038-R-J1-PDC spheroid viability", "viability, T/C", 92.3),
    ("C#Cc1c(F)ccc2cc(O)cc(-c3ncc4c(N5CC6CCC(C5)N6)nc(OCC56CCCN5CC(F)C6)nc4c3F)c12 (stereo unspecified) + CC(Nc1ncnc2nc[nH]c12)c1cc2cccc(Cl)c2c(=O)n1-c1ccccc1", "996289-038-R-J1-PDC spheroid viability", "viability, T/C", 96.6),
    ("CCCS(=O)(=O)Nc1ccc(F)c(C(=O)c2c[nH]c3ncc(-c4ccc(Cl)cc4)cc23)c1F + CC(Nc1ncnc2nc[nH]c12)c1cc2cccc(Cl)c2c(=O)n1-c1ccccc1", "996289-038-R-J1-PDC spheroid viability", "viability, T/C", 98.8),
    ("Cn1nccc1Nc1nccc(-c2ccn(C(CO)c3ccc(Cl)c(F)c3)c(=O)c2)n1 (stereo unspecified) + CC(Nc1ccc2c(c1)OCCn1cc(N3C(=O)OCC3C(F)F)nc1-2)C(N)=O", "996289-038-R-J1-PDC spheroid viability", "viability, T/C", 110),
    ("CC1(C)CCC(Nc2ncc(C(F)(F)F)c(-c3c[nH]c4c(P(C)(C)=O)c(C#N)ccc34)n2)CN1 (stereo unspecified) + CC(Nc1ncnc2nc[nH]c12)c1cc2cccc(Cl)c2c(=O)n1-c1ccccc1", "996289-038-R-J1-PDC spheroid viability", "viability, T/C", 84.5),
    ("CC(=O)c1c(C)c2cnc(Nc3ccc(N4CCNCC4)cn3)nc2n(C2CCCC2)c1=O + CC(Nc1ncnc2nc[nH]c12)c1cc2cccc(Cl)c2c(=O)n1-c1ccccc1", "996289-038-R-J1-PDC spheroid viability", "viability, T/C", 84.2),
    ("CC(C)n1nc(-c2ccc3oc(N)nc3c2)c2c(N)ncnc21 + CC(Nc1ccc2c(c1)OCCn1cc(N3C(=O)OCC3C(F)F)nc1-2)C(N)=O", "996289-038-R-J1-PDC spheroid viability", "viability, T/C", 29.1),
    ("CC1(C)CCC(Nc2ncc(C(F)(F)F)c(-c3c[nH]c4c(P(C)(C)=O)c(C#N)ccc34)n2)CN1 (stereo unspecified) + COc1c(OCCCN2CCOCC2)ccc2c3n(c(=NC(=O)c4cnc(N)nc4)nc12)CCN3", "996289-038-R-J1-PDC spheroid viability", "viability, T/C", 65.2),
    ("CNC(=O)c1ccc(N2C(=S)N(c3ccc(C#N)c(C(F)(F)F)c3)C(=O)C2(C)C)cc1F + CC(Nc1ccc2c(c1)OCCn1cc(N3C(=O)OCC3C(F)F)nc1-2)C(N)=O", "996289-038-R-J1-PDC spheroid viability", "viability, T/C", 81.9),
    ("Cn1ncnc1[C@H]1c2n[nH]c(=O)c3cc(F)cc(c23)N[C@@H]1c1ccc(F)cc1 + Cc1nc(NC(=O)N2CCCC2C(N)=O)sc1-c1ccnc(C(C)(C)C(F)(F)F)c1", "996289-038-R-J1-PDC spheroid viability", "viability, T/C", 99),
    ("C[C@@H](NC(=O)c1ncnc(N)c1Cl)c1ncc(C(=O)Nc2cc(C(F)(F)F)c(Cl)cn2)s1 + CC(Nc1ccc2c(c1)OCCn1cc(N3C(=O)OCC3C(F)F)nc1-2)C(N)=O", "996289-038-R-J1-PDC spheroid viability", "viability, T/C", 103),
]

====

Tested on: 996289-038-R-J1-PDC spheroid viability
Assay: Anticancer human tumor 996289-038-R-J1-PDC cell line growth inhibition [PI3K];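 further: spheroids exposed to compounds for seven days before viability read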;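 on viability, T/C: luminescence used as a proxy for viable cell amount; percent viability relative to DMSO vehicle control as 100%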
Settings: second compound 0.00316 µM; first compound 3.16 µM; stronger effect = lower value; spheroids with HUVEC and MSC
Form field: viability, T/C (one value per entry).

# Compound, viability, T/C, %
data = [
    ("CC1(C)CCC(CN2CCN(c3ccc(C(=O)NS(=O)(=O)c4ccc(NCC5CCOCC5)c([N+](=O)[O-])c4)c(Oc4cnc5[nH]ccc5c4)c3)CC2)=C(c2ccc(Cl)cc2)C1 + COc1c(OCCCN2CCOCC2)ccc2c3n(c(=NC(=O)c4cnc(N)nc4)nc12)CCN3", 106),
    ("CCCS(=O)(=O)Nc1ccc(F)c(C(=O)c2c[nH]c3ncc(-c4ccc(Cl)cc4)cc23)c1F + CC(Nc1ccc2c(c1)OCCn1cc(N3C(=O)OCC3C(F)F)nc1-2)C(N)=O", 83.4),
    ("CC(Cn1ccc(-c2ccc(C#N)c(Cl)c2)n1)NC(=O)c1cc(C(C)O)[nH]n1 (stereo not drawn) + COc1c(OCCCN2CCOCC2)ccc2c3n(c(=NC(=O)c4cnc(N)nc4)nc12)CCN3", 96.9),
]
